- Organism: Rattus norvegicus
- Format: toxicity, organism-based, Sprague-Dawley
- TEST_PARAMETERS: in vivo, sc, 0.5 mg/kg, 24 h, tissue Blood, route mini-PUMP - SUBCUTANEOUS, dose level High, time 1 day, vehicle 100 % SALINE
- Description: DrugMatrix - Regimen: Single
ASSAY_ENDPOINT: ABSOLUTE LYMPHOCYTE (cells/µL)
Give bare numbers, in cells/µL.

q: Note ABSOLUTE LYMPHOCYTE for the compound shown: CC[C@H](C)[C@H](NC(=O)[C@H](Cc1ccc(O)cc1)NC(=O)[C@@H](NC(=O)[C@H](CCCNC(=N)N)NC(=O)[C@@H](N)CC(=O)O)C(C)C)C(=O)N[C@@H](Cc1cnc[nH]1)C(=O)N1CCC[C@H]1C(=O)N[C@@H](Cc1ccccc1)C(=O)O
a: 5400
